Record form. Attribute: Potency. Fill in for each entry.
molecular target: Cytochrome P450 2D6 (Homo sapiens); assay: qHTS Assay for Inhibitors and Substrates of Cytochrome P450 2D6 (AID 891); conditions: recombinant CYP2D6, luciferin-ME EGE luminescence; further: potency means the concentration at half of the fitted maximal effect; nearly all actives have a fitted effect of over 60% in size
Records with an inconclusive call do not appear. The source made the active and inactive calls. The call rests on the fitted dose curve; in most records, active means well fitted inhibition curve with a large enough effect; inconclusive means small, poorly fitted or top-dose-only effect; inactive means no such curve, though single readings can be large or run the other way.

Some molecules with known Potency results, for comparison:
INSERT INTO results (smi, result) VALUES
  ('COc1cc(N)c(Cl)cc1C(=O)NC1CCN(Cc2ccccc2)CC1', '0.0126 µM (active)'),
  ('CCCCc1cc2ccccc2c(OCCN(C)C)n1', '2 µM (active)'),
  ('Cc1c(-c2ccccc2)oc2c(C(=O)OCCN3CCCCC3)cccc2c1=O', '7.94 µM (active)'),
  ('CCN(CC)CCNc1ccc(CO)c2sc3ccccc3c(=O)c12', '5.01 µM (active)');

Moving on to another molecule below.
The recorded Potency for O=C(CCCN1CC=C(n2c(=O)[nH]c3ccccc32)CC1)c1ccc(F)cc1 is 3.16 µM (active)

----------
tested on: HB3; assay: qHTS profiling for inhibitors of Plasmodium falciparum proliferation (AID 504749); further: nearly all actives have a fitted effect of over 60% in size; conditions: P. falciparum in erythrocytes, SYBR Green DNA, 72 h; series mostly up to 28.7 µM
Inconclusive results are not listed. Active and inactive are the calls of the source. Calls come from the whole dose curve; as a rule, active = well fitted inhibition curve with a large enough effect; inconclusive = small, poorly fitted or top-dose-only effect; inactive = flat fitted curve, though single readings scatter.
Assign a class; possible classes are Yes = active, No = inactive

These solved cases illustrate the format of a correct answer.
INSERT INTO measurements (molecule, target_under_test, class_label) VALUES
  ('O=C1C(=O)c2ccccc2C(O)=C1C1CCC(c2ccc(Cl)cc2)CC1 (configuration not stated)', 'HB3', 'Yes'),
  ('CCCCCCCCCCCCCC[N+](C)(C)Cc1ccccc1', 'HB3', 'Yes'),
  ('N#CCC(=O)NN', 'HB3', 'No'),
  ('COc1cc(C(=O)NCc2ccc(OCCN(C)C)cc2)cc(OC)c1OC', 'HB3', 'No'),
  ('CC(C)Nc1cccnc1N1CCN(C(=O)c2cc3cc(NS(C)(=O)=O)ccc3[nH]2)CC1', 'HB3', 'No'),
  ('NC(=O)C1(N2CCCCC2)CCN(CCCC(=O)c2ccc(F)cc2)CC1', 'HB3', 'No'),
  ('NS(=O)(=O)c1cc(C(=O)O)cc(N2CCCC2)c1Oc1ccccc1', 'HB3', 'No'),
  ('Nc1nc(-c2ccccc2)c(Br)c(=O)[nH]1', 'HB3', 'No'),
  ('Cc1ccccc1OCC(O)CO (configuration not stated)', 'HB3', 'No'),
  ('CCOc1ccccc1OCCN[C@H](C)Cc1ccc(OC)c(S(N)(=O)=O)c1', 'HB3', 'No');

Q: # lookup: test call for NC(N)=NCc1cccc(I)c1
Result: No

Q: # lookup: test call for NC(=O)n1c(O)c(C(=O)c2cccs2)c2cc(Cl)ccc21
Result: No

----------
test system: MKL-1; assay: qHTS assay to identify novel small-molecules to repurpose for Merkel cell carcinoma treatment (AID 1296009); details: MCC and control cell lines, CellTiter-Glo viability, 72 h; series mostly up to 46 µM; further: nearly all actives have a fitted effect of over 60% in size
Results filed as inconclusive are left out. Activity calls are given as the source filed them. Calls come from the whole dose curve; as a rule, active = well fitted inhibition curve with a large enough effect; inconclusive = small, poorly fitted or top-dose-only effect; inactive = flat fitted curve, though single readings scatter.
Assign a class; possible classes are active, inactive

INSERT INTO results (compound, class_label) VALUES
  ('O=C1[C@H](CC[C@H](O)c2ccc(F)cc2)[C@@H](c2ccc(O)cc2)N1c1ccc(F)cc1', 'inactive'),
  ('O=C(Oc1cccc2cccnc12)c1ccccc1', 'inactive'),
  ('NS(=O)(=O)c1cc(C(=O)O)cc(N2CCCC2)c1Oc1ccccc1', 'inactive'),
  ('Cc1cccc(C)c1NC(=O)CN1CCCCCC1', 'inactive');

Here's the next entry for you.
Q: # lookup: test call for Cc1cc(CC(=O)O)c(C)n1-c1ccc(Cl)cc1
Result: inactive
